Provide the reported Population Tubulin-Different-Phenotype (%) of each item.
system: U2OS; test: Multiplex assay against U2OS; type: toxicity, cell-based; details: human, 12 h, 10 µM, compound concentration 10 uM, replicate 2
# value in %; strip the unit string

Q) What measured Population Tubulin-Different-Phenotype (%) goes with `Cc1ccc(NC(=O)Nc2cc(C(F)(F)F)ccc2F)cc1Nc1ccc2c(c1)NC(=O)/C2=C\c1ccc[nH]1` ?
A) 19

Q) Item under review: `CC[C@@]1(O)C(=O)OCc2c1cc1n(c2=O)Cc2cc3ccccc3nc2-1` . Reported Population Tubulin-Different-Phenotype (%)?
A) 38

Q) # lookup: Population Tubulin-Different-Phenotype (%) of `CC(C)c1cc(Nc2nc(N3CCC[C@H](N)C3)ncc2C(N)=O)cc(C(C)C)n1`
A) 100

Q) Could you share which Population Tubulin-Different-Phenotype (%) value was measured for `CCOC(=O)CCNc1cc(N2CCc3ccccc3CC2)nc(-c2ccccn2)n1` ?
A) 26

Q) # query: Population Tubulin-Different-Phenotype (%) of entry `CN(c1cc(C(F)(F)F)nc(OCCC(=O)O)n1)c1cccc2c1CCC2`
A) 30

Q) Can you share its Population Tubulin-Different-Phenotype (%)? I mean this molecule: `N#CCNC(=O)c1ccc(-c2ccnc(Nc3ccc(N4CCOCC4)cc3)n2)cc1`
A) 6
